The measured values listed here are drawn from paper PMC12631574.

- ASSAYED_TARGET: tissue transglutaminase (TG2), C-terminal His-tag TG2 (Homo sapiens, UniProt P21980)
- Construct: host or cells: Novagen Rosetta 2 (DE3) E. coli
- Sequence (P21980 1-687): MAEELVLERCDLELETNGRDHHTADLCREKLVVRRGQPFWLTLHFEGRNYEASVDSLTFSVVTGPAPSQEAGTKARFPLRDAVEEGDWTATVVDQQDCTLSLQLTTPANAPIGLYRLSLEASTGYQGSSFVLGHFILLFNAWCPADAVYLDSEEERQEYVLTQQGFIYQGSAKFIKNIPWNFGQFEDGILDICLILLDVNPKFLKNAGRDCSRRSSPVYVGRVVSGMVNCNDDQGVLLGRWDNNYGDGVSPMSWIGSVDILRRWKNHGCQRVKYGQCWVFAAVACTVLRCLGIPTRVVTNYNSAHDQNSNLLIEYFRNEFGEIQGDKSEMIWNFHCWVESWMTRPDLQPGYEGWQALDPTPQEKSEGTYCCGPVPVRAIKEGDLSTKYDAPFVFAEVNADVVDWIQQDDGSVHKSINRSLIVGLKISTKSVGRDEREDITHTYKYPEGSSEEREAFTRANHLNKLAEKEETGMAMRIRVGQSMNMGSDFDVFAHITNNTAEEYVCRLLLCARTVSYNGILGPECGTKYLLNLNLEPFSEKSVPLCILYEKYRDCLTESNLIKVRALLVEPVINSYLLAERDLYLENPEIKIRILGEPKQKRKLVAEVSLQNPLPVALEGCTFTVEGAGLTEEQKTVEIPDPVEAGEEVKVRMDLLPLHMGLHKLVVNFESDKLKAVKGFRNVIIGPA
- PROTOCOL_NOTES: continuous AL5 hydrolysis assay of irreversible TG2 inhibition (kobs vs [I]/α)
- Format: biochemical
- CONDITIONS_USED: supplement, kinetics data and fitting

COMPOUND	ASSAYED_TARGET	kinact/KI
C=CC(=O)NCC(=O)N1CCN(C(=O)C2CCCCCC2)CC1	tissue transglutaminase (TG2), C-terminal His-tag TG2 (Homo sapiens, UniProt P21980)	27.6 ± 16.1 × 103 M-1min-1
C=CC(=O)NCC(=O)N1CCN(C(=O)C23CC4CC(CC(C4)C2)C3)CC1 [EB-2-16, reference compound]	tissue transglutaminase (TG2), C-terminal His-tag TG2 (Homo sapiens, UniProt P21980)	576 ± 50 × 103 M-1min-1
C=CC(=O)NCC(=O)N1CCN(C(=O)C2CCCCC2)CC1	tissue transglutaminase (TG2), C-terminal His-tag TG2 (Homo sapiens, UniProt P21980)	149 ± 31 × 103 M-1min-1
C=CC(=O)NCC(=O)N1CCN(C(=O)c2ccccc2Cc2ccccc2)CC1 [Compound 22a]	tissue transglutaminase (TG2), C-terminal His-tag TG2 (Homo sapiens, UniProt P21980)	61.3 ± 15.9 × 103 M-1min-1
C=CC(=O)NCC(=O)N1CCN(C(=O)c2ccc(Cc3ccccc3)cc2)CC1 [Compound 22g]	tissue transglutaminase (TG2), C-terminal His-tag TG2 (Homo sapiens, UniProt P21980)	26.1 ± 4.9 × 103 M-1min-1
C=CC(=O)NCC(=O)N1CCN(C(=O)C23CC4CC(CC(Br)(C4)C2)C3)CC1 [Compound 25c]	tissue transglutaminase (TG2), C-terminal His-tag TG2 (Homo sapiens, UniProt P21980)	1104 ± 162 × 103 M-1min-1
C=CC(=O)NCC(=O)N1CCN(C(=O)C2CCC2)CC1	tissue transglutaminase (TG2), C-terminal His-tag TG2 (Homo sapiens, UniProt P21980)	25.0 ± 4.7 × 103 M-1min-1
C=CC(=O)NCC(=O)N1CCN(C(=O)c2ccccc2-c2ccccc2C)CC1 [Compound 21a]	tissue transglutaminase (TG2), C-terminal His-tag TG2 (Homo sapiens, UniProt P21980)	118 ± 27 × 103 M-1min-1
C=CC(=O)NCC(=O)N1CCN(C(=O)c2ccccc2Nc2ccccc2)CC1 [Compound 22c]	tissue transglutaminase (TG2), C-terminal His-tag TG2 (Homo sapiens, UniProt P21980)	112 ± 14 × 103 M-1min-1
C=CC(=O)NCC(=O)N1CCN(C(=O)c2cccc(-c3cccc(C)c3)c2)CC1 [Compound 21e]	tissue transglutaminase (TG2), C-terminal His-tag TG2 (Homo sapiens, UniProt P21980)	141 ± 98 × 103 M-1min-1
C=CC(=O)NCC(=O)N1CCN(C(=O)c2cccc(Oc3ccccc3)c2)CC1 [Compound 22e]	tissue transglutaminase (TG2), C-terminal His-tag TG2 (Homo sapiens, UniProt P21980)	112 ± 41 × 103 M-1min-1
C=CC(=O)NCC(=O)N1CCN(C(=O)c2ccccc2-c2cccc(C)c2)CC1 [Compound 21b]	tissue transglutaminase (TG2), C-terminal His-tag TG2 (Homo sapiens, UniProt P21980)	205 ± 60 × 103 M-1min-1
C=CC(=O)NCC(=O)N1CCN(C(=O)c2ccccc2-c2ccc(C)cc2)CC1 [Compound 21c]	tissue transglutaminase (TG2), C-terminal His-tag TG2 (Homo sapiens, UniProt P21980)	58.5 ± 16.2 × 103 M-1min-1
C=CC(=O)NCC(=O)N1CCN(C(=O)c2ccccc2-c2ccccc2)CC1	tissue transglutaminase (TG2), C-terminal His-tag TG2 (Homo sapiens, UniProt P21980)	178.0 ± 68.6 × 103 M-1min-1
C=CC(=O)NCC(=O)N1CCN(C(=O)c2ccc(-c3ccccc3C)cc2)CC1 [Compound 21g]	tissue transglutaminase (TG2), C-terminal His-tag TG2 (Homo sapiens, UniProt P21980)	24.1 ± 7.3 × 103 M-1min-1
C=CC(=O)NCC(=O)N1CCN(C(=O)c2ccc(-c3ccccc3)cc2)CC1	tissue transglutaminase (TG2), C-terminal His-tag TG2 (Homo sapiens, UniProt P21980)	17.2 ± 15.5 × 103 M-1min-1
C=CC(=O)NCC(=O)N1CCN(C(=O)c2cccc(-c3ccc(C)cc3)c2)CC1 [Compound 21f]	tissue transglutaminase (TG2), C-terminal His-tag TG2 (Homo sapiens, UniProt P21980)	241 ± 74 × 103 M-1min-1
